Source listed as ChEMBL document CHEMBL1201861.

- Tested on: MDA-MB-453
- Procedure Details: cells
- Assay type: functional, cell-based
- Condition Summary: Homo sapiens
- Description: SANGER: Inhibition of human MDA-MB-453 cell growth in a cell viability assay.
I'd appreciate it if you could supply IC50 values for the items below.

What measured IC50 is associated with CN(C)CCOc1ccc(-c2nc(-c3ccncc3)c(-c3ccc4c(c3)CC/C4=N\O)[nH]2)cc1 on MDA-MB-453?
> 5000 nM

What measured IC50 is associated with CS(=O)(=O)N1CCN(Cc2cc3nc(-c4cccc5[nH]ncc45)nc(N4CCOCC4)c3s2)CC1 on MDA-MB-453?
> 4000 nM

What measured IC50 is associated with CC1(C)CCC(c2ccc(Cl)cc2)=C(CN2CCN(c3ccc(C(=O)NS(=O)(=O)c4ccc(N[C@H](CCN5CCOCC5)CSc5ccccc5)c(S(=O)(=O)C(F)(F)F)c4)cc3)CC2)C1 on MDA-MB-453?
> 2000 nM

What measured IC50 is associated with NC(=O)c1ccc(N(C(N)=O)c2c(F)cccc2F)nc1-c1ccc(F)cc1F on MDA-MB-453?
> 2000 nM

What measured IC50 is associated with C/C(=C\c1csc(C)n1)[C@@H]1C[C@@H]2O[C@]2(C)CCC[C@H](C)[C@H](O)[C@@H](C)C(=O)C(C)(C)[C@@H](O)CC(=O)O1 on MDA-MB-453?
> 32 nM

###

- Tested on: GOTO;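 further: growth inhibition of GOTO cells, read out by a cell viability assay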
- Procedure Details: cells
- Format: functional, cell-based, Homo sapiens
- Condition Summary: goto
- Description: SANGER: Inhibition of human GOTO cell growth in a cell viability assay.
Where a SMILES comes first, the peptide text is derived from it. The star is where a group is joined. Cbz = O=C(OCc1ccccc1)*
Endpoint Label: IC50

What value of IC50 has been recorded for this entry: CC(C)C[C@@H](C=O)NC(=O)[C@H](CC(C)C)NC(=O)[C@H](CC(C)C)NC(=O)OCc1ccccc1 [MG-132] (Cbz-Leu-Leu-Leu-aldehyde)
> 1000 nM

###

- System: CPC-N;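 further: growth inhibition of CPC-N cells, with a cell viability assay as the readout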
- Procedure Details: cells
- Format: functional, cell-based, Homo sapiens
- Condition Summary: Homo sapiens, CPC-N
- Description: SANGER: Inhibition of human CPC-N cell growth in a cell viability assay.
pIC50: −log10 of the molar value.
Endpoint Label: pIC50

What value of pIC50 has been recorded for this entry: COc1ccc(N(C(=O)Oc2c(C)cccc2C)c2ccnc(Nc3ccc(N4CCN(C)CC4)cc3)n2)c(OC)c1
< 5.29

What value of pIC50 has been recorded for this entry: Cc1ccc(NC(=O)c2ccc(CN3CCN(C)CC3)cc2)cc1Nc1nccc(-c2cccnc2)n1
< 5.70

What value of pIC50 has been recorded for this entry: O=S(=O)(O)c1ccc2cc(/N=N/c3cc(S(=O)(=O)O)c4cccnc4c3O)ccc2c1
< 4.80

What value of pIC50 has been recorded for this entry: CC(C)C[C@H](NC(=O)[C@H](Cc1ccccc1)NC(=O)c1cnccn1)B(O)O
< 7.70

What value of pIC50 has been recorded for this entry: C/C(=C\c1csc(C)n1)[C@@H]1C[C@@H]2O[C@]2(C)CCC[C@H](C)[C@H](O)[C@@H](C)C(=O)C(C)(C)[C@@H](O)CC(=O)O1
7.97

What value of pIC50 has been recorded for this entry: COC(=O)[C@H](CCSC)NC(=O)c1ccc(NC[C@@H](N)CS)cc1-c1ccccc1
< 5.99

What value of pIC50 has been recorded for this entry: COc1ccc(-c2cc3nccn3c(Nc3ncccc3C(N)=O)n2)cc1OC
< 5.10
